absorption maximum overview
- procedure-summary: solvent given as SMILES
- particulars: in CS(C)=O
Kindly write the number and append the unit.

chemical-string	absorption maximum
CCCCN1C(=O)c2cccc3c([O-])c(/C=C/c4sc5ccccc5[n+]4CC)cc(c23)C1=O	566.81 nm

Moving on to the next compound.
The reported absorption maximum of the compound CN(C)c1c2ccccc2cc2ccccc12 was 390 nm

====

- procedure-summary: solvent given as SMILES
- particulars: in CN(C)C=O
# cutoff 400 nm applies to absorption maximum; >= gives 1, < gives -1

chemical-string	category-label
CCCCCCC(CCCCCC)N1C(=O)c2cccc3c(-c4ccc(OC)cc4)ccc(c23)C1=O	-1
CN1CCN(c2ccc3c4c(cccc24)C(=O)c2ccccc2-3)CC1	1
C[Si](C)(C)O[Si]1(O[Si](C)(C)C)n2c3c4ccccc4c2/N=C2N=C(/N=c4/c5ccccc5/c(n41)=N/C1=NC(=N\3)/c3ccccc31)c1ccccc1\2	1
CN(C)c1ccc(-c2cc(-c3ccc(C#N)cc3)nn2C)cc1	-1
C=CCOC(=O)C(C#N)=C1C=C(/C=C/c2ccc(N(C)C)cc2)OC(/C=C/c2ccc(N(C)C)cc2)=C1	1

Q. Tell me whether absorption maximum is at least 400 nm here: CC(C)(C)c1ccc2c(c1)c1cc(C(C)(C)C)ccc1n2-c1ccccc1-c1nc(-c2ccccc2P(=O)(c2ccccc2)c2ccccc2)nc(-c2ccccc2P(=O)(c2ccccc2)c2ccccc2)n1
A. -1

Q. Tell me whether absorption maximum is at least 400 nm here: O=C1C2=C3c4ccsc4C=CN3C(=O)C2=C2c3ccsc3C=CN12
A. 1

====

- procedure-summary: solvent given as SMILES
- particulars: in CCO
measurement-name: absorption maximum (nm)
API: value field is a number in nm; no unit string.

chemical-string	measured
CCC1=C(C)C2=Cc3c(I)c(I)cn3[B-](F)(F)[N+]2=C1C	517.5
CCN(CC)c1ccc2nc3c4ccccc4c(=O)cc-3oc2c1	549
F[B-]1(F)N(c2ccccc2)C=Cc2cccc[n+]21	418
CCCCCCCCC1(CCCCCCCC)c2cc(-c3ccc([N+](=O)[O-])cc3)ccc2-c2ccc(-c3ccc([N+](=O)[O-])cc3)cc21	368

The reported absorption maximum of the compound CN(C)c1c2ccccc2cc2ccccc12 was 385

The reported absorption maximum of the compound CNc1ccc2nc3cc(Cl)c(Cl)cc3nc2c1 was 490

The reported absorption maximum of the compound Nc1ccc2c(c1)C(=O)c1ccccc1-2 was 488

====

- procedure-summary: solvent given as SMILES
- particulars: in ClCCl
measurement-name: absorption maximum (nm)
API: value field is a number in nm; no unit string.

Study these solved cases before continuing.
chemical-string	absorption maximum, nm
CNC(=O)[C@H](C)NC(=O)c1cccc2c1C#Cc1c(NC(=O)[C@@H](NC(C)=O)C(C)C)cccc1OCCCO2	336
CCN(CC)c1ccc2cc(-c3nc4cc(C(=O)Nc5ccccc5)ccc4o3)c(=O)oc2c1	442
COC(=O)c1cc(=O)n(C)c2cc(-c3ccc(Oc4ccccc4)cc3)sc12	398
CC(C)(C)c1ccc2c(c1)c1cc(C(C)(C)C)ccc1n2-c1ccc(-c2nc(-c3ccc(P(=O)(c4ccccc4)c4ccccc4)cc3)nc(-c3ccc(P(=O)(c4ccccc4)c4ccccc4)cc3)n2)cc1	375.3
COc1ccc(/C=C/c2cc(/C=C/c3ccc(OC)cc3)nc(/C=C/c3ccccc3)n2)cc1	369
COc1ccc(/C=C/C2=[O+][B-](F)(F)OC(/C=C/c3ccc(OC)cc3)=C2c2ccccc2)cc1	505

The reported absorption maximum of the molecule COc1ccc(/C=C/c2ncc(-c3ccccc3)o2)cc1OC was 355

The reported absorption maximum of the molecule C1=Cc2nc1c(-c1cccs1)c1ccc([nH]1)c(-c1cccs1)c1nc(c(-c3cccs3)c3ccc([nH]3)c2-c2cccs2)C=C1 was 426
